Ref: ChEMBL document CHEMBL3885861

# Species: Rattus norvegicus
# protocol.description: Open TG-GATES - Regimen: Daily Repeat
# Format: toxicity, organism-based, Sprague-Dawley
# Design: regimen Daily Repeat, gender Male, age 6 weeks
# run.parameters: in vivo, po, 300 mg/kg, […], tissue Blood, route gavage, dose level Middle, time 7 day

{"compound": "O=C(O)c1ccccc1Nc1ccccc1", "result.units": "x10_4/uL", "Plat": 137.6}
{"compound": "CCCCNC(=O)NS(=O)(=O)c1ccc(C)cc1 [TOLBUTAMIDE]", "result.units": "x10_4/uL", "Plat": 118.8}
{"compound": "CC(S)C(=O)NCC(=O)O (centres undefined)", "result.units": "x10_4/uL", "Plat": 121.4}
{"compound": "CC(=O)[C@@]1(O)CC[C@H]2[C@@H]3C=C(Cl)C4=CC(=O)CC[C@]4(C)[C@H]3CC[C@@]21C", "result.units": "x10_4/uL", "Plat": 129.9}

====

# Organism: Rattus norvegicus
# protocol.description: Open TG-GATES - Regimen: Daily Repeat
# Format: toxicity, organism-based, Sprague-Dawley
# Parameters: regimen Daily Repeat, gender Male, age 6 weeks
# run.parameters: in vivo, po, 0 mg/kg, […], tissue Blood, route gavage, dose level Control, time 14 day
Rule for this label: True means Mono is less than 2%; False means Mono is at least 2%.

{"molecule": "CN(CCOc1ccc(CC2SC(=O)NC2=O)cc1)c1ccccn1.O=C(O)/C=C\\C(=O)O (stereo not drawn) [ROSIGLITAZONE MALEATE]", "class.label": "False"}
{"molecule": "COc1ccc([C@@H]2Sc3ccccc3N(CCN(C)C)C(=O)[C@@H]2OC(C)=O)cc1", "class.label": "False"}
{"molecule": "O=C(O)c1ccccc1Nc1ccccc1", "class.label": "True"}
{"molecule": "CCO", "class.label": "False"}
{"molecule": "Nc1ccc(Cc2ccc(N)cc2)cc1", "class.label": "False"}
{"molecule": "CC(=O)[C@@]1(O)CC[C@H]2[C@@H]3C=C(Cl)C4=CC(=O)CC[C@]4(C)[C@H]3CC[C@@]21C", "class.label": "False"}
{"molecule": "NS(=O)(=O)c1cc(C(=O)O)c(NCc2ccco2)cc1Cl [FUROSEMIDE]", "class.label": "False"}
{"molecule": "CN(C/C=C/C#CC(C)(C)C)Cc1cccc2ccccc12", "class.label": "False"}
{"molecule": "CC(S)C(=O)NCC(=O)O (stereo not drawn)", "class.label": "False"}
{"molecule": "O=c1ccc2ccccc2o1", "class.label": "False"}
{"molecule": "CCCCC1C(=O)N(c2ccccc2)N(c2ccccc2)C1=O", "class.label": "False"}
{"molecule": "CCCCNC(=O)NS(=O)(=O)c1ccc(C)cc1 [TOLBUTAMIDE]", "class.label": "True"}

====

# Organism: Rattus norvegicus
# protocol.description: Open TG-GATES - Regimen: Daily Repeat
# Format: toxicity, organism-based, Sprague-Dawley
# Design: regimen Daily Repeat, gender Male, age 6 weeks
# run.parameters: in vivo, po, 0 mg/kg, […], tissue Plasma, route gavage, dose level Control, time 7 day
readout.type: Ca

{"compound": "CN(CCOc1ccc(CC2SC(=O)NC2=O)cc1)c1ccccn1.O=C(O)/C=C\\C(=O)O (stereo unspecified) [ROSIGLITAZONE MALEATE]", "assay.result": "19.5 mg/dL"}
{"compound": "O=c1ccc2ccccc2o1 [COUMARIN]", "assay.result": "10.6 mg/dL"}
{"compound": "CC(S)C(=O)NCC(=O)O (stereo unspecified) [TIOPRONIN]", "assay.result": "10.7 mg/dL"}
{"compound": "CCCCC1C(=O)N(c2ccccc2)N(c2ccccc2)C1=O [PHENYLBUTAZONE]", "assay.result": "10.6 mg/dL"}
{"compound": "CCO [ALCOHOL]", "assay.result": "10.4 mg/dL"}
{"compound": "CC(=O)[C@@]1(O)CC[C@H]2[C@@H]3C=C(Cl)C4=CC(=O)CC[C@]4(C)[C@H]3CC[C@@]21C [CHLORMADINONE]", "assay.result": "10.8 mg/dL"}
{"compound": "CCCCNC(=O)NS(=O)(=O)c1ccc(C)cc1 [TOLBUTAMIDE]", "assay.result": "10.9 mg/dL"}
{"compound": "COc1ccc([C@@H]2Sc3ccccc3N(CCN(C)C)C(=O)[C@@H]2OC(C)=O)cc1 [DILTIAZEM]", "assay.result": "11.1 mg/dL"}
{"compound": "CN(C/C=C/C#CC(C)(C)C)Cc1cccc2ccccc12 [TERBINAFINE]", "assay.result": "10.7 mg/dL"}
{"compound": "Nc1ccc(Cc2ccc(N)cc2)cc1", "assay.result": "11 mg/dL"}
{"compound": "O=C(O)c1ccccc1Nc1ccccc1 [FENAMIC ACID]", "assay.result": "11.4 mg/dL"}

====

# maps each entry to its Ca
# Species on record: Rattus norvegicus
# protocol.description: Open TG-GATES - Regimen: Daily Repeat
# Assay type: toxicity, organism-based, Sprague-Dawley
# Set-up: regimen Daily Repeat, gender Male, age 6 weeks
# run.parameters: in vivo, po, 300 mg/kg, […], tissue Plasma, route gavage, dose level Middle, time 14 day

{"molecule": "CC(=O)[C@@]1(O)CC[C@H]2[C@@H]3C=C(Cl)C4=CC(=O)CC[C@]4(C)[C@H]3CC[C@@]21C [CHLORMADINONE]", "Ca": "10.5 mg/dL"}
{"molecule": "CC(S)C(=O)NCC(=O)O (centres undefined) [TIOPRONIN]", "Ca": "10.6 mg/dL"}
{"molecule": "O=C(O)c1ccccc1Nc1ccccc1 [FENAMIC ACID]", "Ca": "11.3 mg/dL"}
{"molecule": "CCCCNC(=O)NS(=O)(=O)c1ccc(C)cc1 [TOLBUTAMIDE]", "Ca": "10.9 mg/dL"}

====

Here, each record is paired with measured gamma-GTP data.
# Species on record: Rattus norvegicus
# protocol.description: Open TG-GATES - Regimen: Daily Repeat
# Type: toxicity, organism-based, Sprague-Dawley
# Parameters: regimen Daily Repeat, gender Male, age 6 weeks
# run.parameters: in vivo, po, 0 mg/kg, […], tissue Plasma, route gavage, dose level Control, time 28 day

{"molecule": "Nc1ccc(Cc2ccc(N)cc2)cc1", "gamma-GTP [IU/L]": 1}
{"molecule": "CCCCC1C(=O)N(c2ccccc2)N(c2ccccc2)C1=O", "gamma-GTP [IU/L]": 2}
{"molecule": "CC(S)C(=O)NCC(=O)O (stereo not drawn)", "gamma-GTP [IU/L]": 2}
{"molecule": "CN(CCOc1ccc(CC2SC(=O)NC2=O)cc1)c1ccccn1.O=C(O)/C=C\\C(=O)O (stereo not drawn) [ROSIGLITAZONE MALEATE]", "gamma-GTP [IU/L]": 0.4}
{"molecule": "O=C(O)c1ccccc1Nc1ccccc1", "gamma-GTP [IU/L]": 1}
{"molecule": "CN(C/C=C/C#CC(C)(C)C)Cc1cccc2ccccc12", "gamma-GTP [IU/L]": 1.4}
{"molecule": "NS(=O)(=O)c1cc(C(=O)O)c(NCc2ccco2)cc1Cl [FUROSEMIDE]", "gamma-GTP [IU/L]": 0.4}
{"molecule": "COc1ccc([C@@H]2Sc3ccccc3N(CCN(C)C)C(=O)[C@@H]2OC(C)=O)cc1", "gamma-GTP [IU/L]": 1.2}
{"molecule": "CCO", "gamma-GTP [IU/L]": 1.6}
{"molecule": "O=c1ccc2ccccc2o1", "gamma-GTP [IU/L]": 1}
{"molecule": "CC(=O)[C@@]1(O)CC[C@H]2[C@@H]3C=C(Cl)C4=CC(=O)CC[C@]4(C)[C@H]3CC[C@@]21C", "gamma-GTP [IU/L]": 2.2}
{"molecule": "CCN(CC)C(=S)SSC(=S)N(CC)CC", "gamma-GTP [IU/L]": 2.6}
{"molecule": "CCCCNC(=O)NS(=O)(=O)c1ccc(C)cc1 [TOLBUTAMIDE]", "gamma-GTP [IU/L]": 1.2}

====

# Ht annotations
# Species: Rattus norvegicus
# protocol.description: Open TG-GATES - Regimen: Daily Repeat
# Type: toxicity, organism-based, Sprague-Dawley
# Design: regimen Daily Repeat, gender Male, age 6 weeks
# run.parameters: in vivo, po, 100 mg/kg, […], tissue Blood, route gavage, dose level Low, time 7 day

{"molecule": "CC(=O)[C@@]1(O)CC[C@H]2[C@@H]3C=C(Cl)C4=CC(=O)CC[C@]4(C)[C@H]3CC[C@@]21C [CHLORMADINONE]", "Ht / %": 43.2}
{"molecule": "CCCCNC(=O)NS(=O)(=O)c1ccc(C)cc1 [TOLBUTAMIDE]", "Ht / %": 40.9}
{"molecule": "CC(S)C(=O)NCC(=O)O (centres undefined) [TIOPRONIN]", "Ht / %": 39.7}
{"molecule": "O=C(O)c1ccccc1Nc1ccccc1 [FENAMIC ACID]", "Ht / %": 39.6}
